Field: pIC50. Provide a value for each of the molecules that follow.
target: CDK9/cyclin T1 (Homo sapiens); assay: Inhibition of N-terminal GST-HIS6 fusion protein tagged human full length CDK9 (M1 to F372 residues)/N-terminal GST-HIS6 fusion protein tagged human Cyclin-T1 (M1 to K726 residues) expressed in Sf9 cells at 10 uM using TAMRA-Rbtide substrate and ATP incubated for 1 hr by fluorescent polarization assay
Sequence (O60563 whole entry, the tested form may be a part): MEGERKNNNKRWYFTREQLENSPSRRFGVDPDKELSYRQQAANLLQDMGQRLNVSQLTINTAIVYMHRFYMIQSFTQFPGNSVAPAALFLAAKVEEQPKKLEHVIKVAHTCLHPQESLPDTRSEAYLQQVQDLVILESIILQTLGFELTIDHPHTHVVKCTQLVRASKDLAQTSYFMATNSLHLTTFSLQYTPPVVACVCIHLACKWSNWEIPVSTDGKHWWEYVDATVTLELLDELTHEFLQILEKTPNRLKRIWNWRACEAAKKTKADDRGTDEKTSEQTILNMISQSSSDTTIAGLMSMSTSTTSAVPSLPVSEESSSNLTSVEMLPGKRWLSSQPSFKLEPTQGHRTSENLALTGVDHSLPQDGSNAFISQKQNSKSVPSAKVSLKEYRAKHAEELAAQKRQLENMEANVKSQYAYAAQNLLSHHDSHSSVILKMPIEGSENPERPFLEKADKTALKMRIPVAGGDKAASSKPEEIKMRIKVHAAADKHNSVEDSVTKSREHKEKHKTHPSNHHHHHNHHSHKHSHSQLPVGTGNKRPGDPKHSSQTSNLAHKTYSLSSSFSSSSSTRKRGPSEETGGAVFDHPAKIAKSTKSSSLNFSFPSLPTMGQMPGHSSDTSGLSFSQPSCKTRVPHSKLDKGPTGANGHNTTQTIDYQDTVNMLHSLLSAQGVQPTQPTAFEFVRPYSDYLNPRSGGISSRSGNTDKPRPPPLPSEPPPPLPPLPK
Sequence (P50750 whole entry, the tested form may be a part): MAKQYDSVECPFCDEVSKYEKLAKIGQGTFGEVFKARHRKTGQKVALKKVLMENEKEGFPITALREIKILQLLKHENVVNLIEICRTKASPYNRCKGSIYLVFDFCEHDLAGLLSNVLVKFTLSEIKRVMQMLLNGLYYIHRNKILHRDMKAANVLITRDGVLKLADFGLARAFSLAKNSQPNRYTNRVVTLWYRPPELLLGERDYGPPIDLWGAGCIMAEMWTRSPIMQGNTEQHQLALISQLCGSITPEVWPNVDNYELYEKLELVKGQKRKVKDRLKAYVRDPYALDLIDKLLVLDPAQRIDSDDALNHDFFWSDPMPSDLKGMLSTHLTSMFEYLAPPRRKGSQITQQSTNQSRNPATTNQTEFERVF
pIC50: −log10 of the molar value.

**Q:** Name the reported pIC50 value associated with the molecule `COc1cc(F)c(Nc2nccc(-c3ccc(F)cc3OC(C)C)n2)cc1C(N)=O`
**A:** < 4.90

**Q:** Another: `COc1cc(F)c(Nc2nccc(-c3ccccc3OC)n2)cc1C(N)=O`
**A:** 5.80

**Q:** Another: `COc1cc(F)c(Nc2nccc(-c3ccc(F)cc3F)n2)cc1C(N)=O`
**A:** < 4.90
